From: PubChem BioAssay

Overview of reported z-score across a group of compounds:
PROTOCOL_DETAILS: PSAC antagonists in infected red cells, primary screen, cell-based, P. falciparum Indochina, OD700, 18 h (AID 1157)
RUN_CONDITIONS: P. falciparum Indochina infected erythrocytes, osmotic lysis OD700, 18 h; higher = more signal, called active from +8 up or from −8 down
Give a plain numeric answer without units written out.

COMPOUND	RECORDED_VALUE
CCCC[C@@H](O)C1=C(C)C[C@H]2C(=O)N(Cc3ccccc3)C(=O)[C@H]2[C@H]1CO	0.206

Enquiry: Entry COCCCNC(=O)[C@@]1(C)c2ccccc2C(=O)N(Cc2ccc(OC(F)(F)F)cc2)[C@H]1c1ccc(CO)cc1 has what z-score?
Return: -0.0648

Enquiry: Entry Cc1cc2c(nc1C)CCCN2CC(O)CN1CCN(C)CC1 (stereo not given) has what z-score?
Return: -0.0963

Enquiry: Entry COc1ccc([Si](C)(C)[C@H]2[C@H](CC(=O)N3CCC[C@H]3CO)O[C@@]3(C(=O)N(Cc4cccc(N5C(=O)COc6ccccc65)c4)c4ccccc43)[C@@H]2C)cc1 has what z-score?
Return: -0.701

Enquiry: Entry CC(=O)OC[C@H]1O[C@H](CC=NOC[C@@H](C)[C@H](OCc2ccccc2)C(C)C)C=C[C@@H]1OC(C)=O has what z-score?
Return: 0.343

Enquiry: Entry C=CCC(OC(C)=O)[C@@H]1[C@@H](N(Cc2cc3ccccc3o2)C(=O)Cc2ccc(F)cc2)c2cc(OCCCO)ccc2N1C(=O)Cc1ccc(OC)cc1 (stereo not given in full) has what z-score?
Return: -0.133
